This section presents molecules with their documented pKd values.
Biological target: frataxin precursor (aa 1-210) (Homo sapiens)
Construct: full-length precursor, aa 1-210, recombinant, expressed and purified by GenScript
Sequence (Q16595 1-210): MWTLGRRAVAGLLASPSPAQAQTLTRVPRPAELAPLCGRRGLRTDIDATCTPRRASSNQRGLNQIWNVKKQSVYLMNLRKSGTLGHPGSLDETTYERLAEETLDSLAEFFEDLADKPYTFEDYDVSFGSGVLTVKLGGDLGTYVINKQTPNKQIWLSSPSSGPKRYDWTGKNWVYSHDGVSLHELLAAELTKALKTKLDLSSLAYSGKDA
Experiment: intrinsic Trp fluorescence quenching, hyperbolic isotherm
Settings: 20 °C; 2 μM protein; ligand 0.5-25 μM; half-saturation binding constant; read-out: L1/2
pKd: −log10 of the molar value.
MEASURED METRIC: pKd

C/C(=N\NC(=O)c1ccccc1)c1ccc2c(c1)Nc1ccccc1S2 :: 5.64
C/C(=N\NC(=O)c1ccc(C)cc1C)c1ccc2c(c1)Nc1ccccc1S2 :: 5.54
